TARGET_SYSTEM: T1, ZFP SBS#1209 (synthetic)
T1 chain: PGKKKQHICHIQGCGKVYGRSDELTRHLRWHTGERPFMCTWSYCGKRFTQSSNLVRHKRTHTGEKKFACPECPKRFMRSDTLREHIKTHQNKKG
EXPERIMENT: EMSA
CONDITION_DETAILS: tags: MBP fusion
TEST_READOUT: Kd (nM)
Give your result in nM as a bare value.

Quick one: Kd for CCGGAAGCG (dsDNA) DNA 1: CCGGAAGCG DNA 2: CGCTTCCGG ?
19.3
